assay: Neurotoxicity in ip dosed mouse assessed as maximum tolerated dose by rotarod test; assay type: toxicity, organism-based; details: in vivo
ATTRIBUTE_MEASURED: MTD (mg/kg)
Enter your answer as a number in mg/kg; do not include the unit.

Reference set (2 entries):
| SAMPLE_SMILES | MTD [mg/kg] |
| --- | --- |
| Cc1ccc(Nc2c(C#N)c3c(c4nnc(SCC(=O)c5ccc([N+](=O)[O-])cc5)n24)COC(C)(C)C3)cc1 | 1250 |
| Cc1ccc(Nc2c(C#N)c3c(c4nnc(SCC(=O)N(c5ccccc5)c5ccccc5)n24)COC(C)(C)C3)cc1 | 1750 |

Entry under review: Cc1ccc(Nc2c(C#N)c3c(c4nnc(SCc5ccccc5Cl)n24)COC(C)(C)C3)cc1 . Reported MTD? 1350

* * *

assay: Neurotoxicity in ip dosed mouse assessed as myorelaxation measured for 2 mins by rotarod test; assay type: toxicity, organism-based; conditions: in vivo
Catalogue of TD50 at 2 min readings, one per entry.

Reference set (2 entries):
| SAMPLE_SMILES | TD50 at 2 min |
| --- | --- |
| CCCCN(CCCC)C(=O)CSc1nnc2c3c(c(C#N)c(Nc4ccccc4)n12)CC(C)(C)OC3 | > 500 mg/kg |
| CC1(C)Cc2c(C#N)c(Nc3ccccc3)n3c(SCC(=O)Nc4ccc(Cl)c(Cl)c4)nnc3c2CO1 | > 500 mg/kg |

Entry under review: Cc1ccc(Nc2c(C#N)c3c(c4nnc(SCC(=O)c5ccc([N+](=O)[O-])cc5)n24)COC(C)(C)C3)cc1 . Reported TD50 at 2 min? > 500 mg/kg

* * *

test: Protection index, ratio of TD50 for neurotoxicity in ip dosed mouse to ED50 for anticonvulsant activity in ip dosed mouse; type: toxicity, organism-based; conditions: in vivo, read-out: Ratio TD50/ED50
Catalogue of selectivity ratio readings, one per entry.
Could you respond with only the numeric value?

| MOLECULE | RECORDED_RESULT |
| --- | --- |
| Cc1ccc(Nc2c(C#N)c3c(c4nnc(SCC(=O)N(c5ccccc5)c5ccccc5)n24)COC(C)(C)C3)cc1 | 13.5 |
| CC1(C)Cc2c(C#N)c(Nc3ccccc3)n3c(SCC(=O)c4cccc([N+](=O)[O-])c4)nnc3c2CO1 | 13.6 |
| CC1(C)Cc2c(C#N)c(Nc3ccccc3)n3c(SCCCc4ccccc4)nnc3c2CO1 | 24 |
| CCOC(=O)C(Sc1nnc2c3c(c(C#N)c(Nc4ccccc4)n12)CC(C)(C)OC3)c1ccccc1 (stereo not given) | 11.8 |

Okay, next one:
Entry under review: COc1ccc(CSc2nnc3c4c(c(C#N)c(Nc5ccc(C)cc5)n23)CC(C)(C)OC4)cc1 . Reported selectivity ratio? 13.6

Attribution: ChEMBL document CHEMBL4373657
